Target: human TLR8 (Homo sapiens, UniProt Q9NR97)
Construct: host or cells: HEK-Blue cells
Sequence (Q9NR97 27-1041): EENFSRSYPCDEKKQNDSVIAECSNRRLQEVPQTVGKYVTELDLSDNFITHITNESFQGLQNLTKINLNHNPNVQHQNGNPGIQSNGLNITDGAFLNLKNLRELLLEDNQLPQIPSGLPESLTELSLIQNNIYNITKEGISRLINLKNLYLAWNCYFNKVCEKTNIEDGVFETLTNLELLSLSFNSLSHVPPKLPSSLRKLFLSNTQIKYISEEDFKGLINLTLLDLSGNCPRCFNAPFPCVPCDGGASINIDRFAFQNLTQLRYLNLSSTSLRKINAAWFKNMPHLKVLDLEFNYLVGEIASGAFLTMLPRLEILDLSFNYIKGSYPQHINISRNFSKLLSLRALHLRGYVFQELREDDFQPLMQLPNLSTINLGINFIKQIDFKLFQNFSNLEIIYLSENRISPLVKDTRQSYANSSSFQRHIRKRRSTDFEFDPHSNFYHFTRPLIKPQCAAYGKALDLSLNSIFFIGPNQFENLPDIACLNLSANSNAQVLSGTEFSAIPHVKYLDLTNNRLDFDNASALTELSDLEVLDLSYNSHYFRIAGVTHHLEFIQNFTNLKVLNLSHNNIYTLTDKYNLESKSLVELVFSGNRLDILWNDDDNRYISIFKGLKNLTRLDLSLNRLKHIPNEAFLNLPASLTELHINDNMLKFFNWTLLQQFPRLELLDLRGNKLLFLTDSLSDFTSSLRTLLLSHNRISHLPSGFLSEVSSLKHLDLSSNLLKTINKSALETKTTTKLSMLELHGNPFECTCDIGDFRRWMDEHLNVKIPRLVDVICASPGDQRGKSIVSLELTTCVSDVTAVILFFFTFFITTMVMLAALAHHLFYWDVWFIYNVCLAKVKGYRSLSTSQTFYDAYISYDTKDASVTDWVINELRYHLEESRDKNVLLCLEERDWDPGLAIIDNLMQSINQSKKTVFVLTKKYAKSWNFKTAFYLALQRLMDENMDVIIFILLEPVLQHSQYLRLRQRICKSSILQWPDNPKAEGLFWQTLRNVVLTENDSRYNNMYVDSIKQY
Assay: TLR8 inhibition reporter assay (HEK-Blue cells, SEAP reporter, R848 stimulation)
Format: cell-based
Conditions: HEK-Blue cells overexpressing human TLR8, SEAP reporter, R848 15.9 μM; read-out: TLR8 IC50
From the text: TLR7/8/9 Inhibition Reporter Assays HEK-Blue™-cells (Invivogen) overexpressing human TLR7, TLR8 or TLR9 receptors were used for screening inhibitors of these receptors using an inducible SEAP (secreted embryonic alkaline phosphatase) reporter gene under the control of the IFN-β minimal promoter fused to five NF-κB and AP-1-binding sites. […]
pIC50: −log10 of the molar value.
property: pIC50

Cc1cc2ncnn2cc1-c1[nH]c2sc(C3CCC(NC4CCOCC4)CC3)nc2c1C(C)C (single isomer, unassigned) [Example 160] | 10.22
Cc1c(-c2[nH]c3sc(C4CCN(CC(=O)N(C)C)CC4)nc3c2C(C)C)cn2ncnc2c1C | 8.87
COc1cc(-c2[nH]c3sc(C4CCC(N5CC6(COC6)C5)CC4)nc3c2C(C)C)cn2ncnc12 (single isomer, unassigned) [Example 69] | 7.45
COc1cc(-c2[nH]c3sc(C(=O)NCC(F)F)nc3c2C(C)C)cn2ncnc12 | 6.77
Cc1cc(-c2[nH]c3sc(C4CCNCC4)nc3c2C(C)C)cc(C)n1 | 7.47

[A] COc1cc(-c2[nH]c3sc(C4CCC(NC5(C#N)CC5)CC4)nc3c2C(C)C)cn2ncnc12 (centres unmarked) [Example 107]
[B] Cc1c(-c2[nH]c3sc(C4CCC(NCC(N)=O)CC4)nc3c2C(C)C)cn2ncnc2c1C (centres unmarked) [Example 211]
[C] Cc1cc(-c2[nH]c3sc(C(N)=O)nc3c2C(C)C)cn2ncnc12
[D] Cc1cc(-c2[nH]c3sc(C4CCC(NCC5(CO)CC5)CC4)nc3c2C(C)C)cn2ncnc12 (single isomer, unassigned) [Example 142]
Ask: Please rank these compounds by pIC50 in descending order. Lab note: record answer as labels in requested order.
Reply: B, D, C, A

[P] Cc1c(-c2[nH]c3sc(N4CC5(CN(CC6CCOCC6)C5)C4)nc3c2C(C)C)cn2ncnc2c1C
[Q] COc1cc(-c2[nH]c3sc(C4CCC(NCC(C)(C)OC)CC4)nc3c2C(C)C)cn2ncnc12 (single isomer, unassigned) [Example 86]
[R] COc1cc(-c2[nH]c3sc(C4CCC(NC5CCN(C(C)C)CC5)CC4)nc3c2C(C)C)cn2ncnc12 (single isomer, unassigned) [Example 167]
Ask: Sort by pIC50, descending. Kindly provide the labels arranged according to the requested ordering.
Reply: Q, P, R
(Q: 9.15, P: 8.82, R: 7.46)

[a] CC(C)c1c(-c2cn(C)c3ncccc23)[nH]c2sc(C3CCC(NC45CC(C4)C5)CC3)nc12 (single isomer, unassigned) [Example 177]
[b] Cc1c(-c2[nH]c3sc(C4CCC(NCC(C)(C)O)CC4)nc3c2C(C)C)cn2ncnc2c1C (single isomer, unassigned) [Example 197]
Ask: Could you tell me which of these two has the smaller pIC50 figure? First: a Second: b Indicate your choice by writing its label.
Reply: a
(a: 8.25, b: 8.68)

---

Biological target: human TLR7 (Homo sapiens)
Construct: host or cells: HEK-Blue cells
Sequence (Q9NYK1 27-1049): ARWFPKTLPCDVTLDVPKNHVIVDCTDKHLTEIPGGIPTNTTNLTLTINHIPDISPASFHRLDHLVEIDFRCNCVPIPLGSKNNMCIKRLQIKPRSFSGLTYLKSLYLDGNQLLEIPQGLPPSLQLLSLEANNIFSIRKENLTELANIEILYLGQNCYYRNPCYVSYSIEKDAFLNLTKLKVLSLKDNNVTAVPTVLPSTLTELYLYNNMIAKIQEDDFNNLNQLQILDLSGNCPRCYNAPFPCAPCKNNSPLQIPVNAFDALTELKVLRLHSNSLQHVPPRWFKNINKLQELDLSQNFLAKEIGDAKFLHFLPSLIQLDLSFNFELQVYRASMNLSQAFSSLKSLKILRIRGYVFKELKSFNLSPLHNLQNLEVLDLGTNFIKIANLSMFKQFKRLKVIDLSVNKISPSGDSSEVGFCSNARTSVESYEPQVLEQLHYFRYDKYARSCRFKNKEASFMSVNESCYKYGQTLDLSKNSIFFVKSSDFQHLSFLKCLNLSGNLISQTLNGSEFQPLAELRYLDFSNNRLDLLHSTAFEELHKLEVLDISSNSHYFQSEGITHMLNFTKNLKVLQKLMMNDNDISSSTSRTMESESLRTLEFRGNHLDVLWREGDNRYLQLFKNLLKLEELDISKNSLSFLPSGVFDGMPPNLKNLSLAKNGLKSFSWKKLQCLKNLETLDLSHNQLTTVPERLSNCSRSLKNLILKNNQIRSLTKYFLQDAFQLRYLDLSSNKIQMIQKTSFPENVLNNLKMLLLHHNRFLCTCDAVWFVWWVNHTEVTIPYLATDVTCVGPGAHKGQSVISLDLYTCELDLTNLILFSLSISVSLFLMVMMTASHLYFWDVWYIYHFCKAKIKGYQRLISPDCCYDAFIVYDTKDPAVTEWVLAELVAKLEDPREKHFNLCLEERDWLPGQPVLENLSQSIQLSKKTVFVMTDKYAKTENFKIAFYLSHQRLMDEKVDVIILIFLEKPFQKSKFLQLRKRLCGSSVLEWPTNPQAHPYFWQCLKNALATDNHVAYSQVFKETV
Test: TLR7 inhibition reporter assay (HEK-Blue cells, SEAP reporter, gardiquimod stimulation)
Format: cell-based
Conditions: HEK-Blue cells overexpressing human TLR7, SEAP reporter, gardiquimod 7.5 μM; read-out: TLR7 IC50
pIC50: −log10 of the molar value.
property: pIC50

Cc1c(-c2[nH]c3sc(C4CCC(NCC(C)(C)O)CC4)nc3c2C(C)C)cn2ncnc2c1C (single isomer, unassigned) [Example 196] | 8.95

[I] CC(C)c1c(-c2cn(C)c3ncccc23)[nH]c2sc(C3CCN(CC(N)=O)CC3)nc12
[II] Cc1c(-c2[nH]c3sc(C4CCC(N5CC(F)C5)CC4)nc3c2C(C)C)cn(C)c(=O)c1C (single isomer, unassigned) [Example 266]
Ask: Field: lower pIC50 | Options: I / II Please indicate the selected item by its label.
Reply: II

[a] Cc1cc(-c2[nH]c3sc(C(N)=O)nc3c2C(C)C)cn2ncnc12
[b] COc1cc(-c2[nH]c3sc(C4CCC(N5CCCOCC5)CC4)nc3c2C(C)C)cn2ncnc12 (single isomer, unassigned) [Example 102]
[c] COc1cc(-c2[nH]c3sc(C4CCC(NC5(C#N)CC5)CC4)nc3c2C(C)C)cn2ncnc12 (stereo not shown) [Example 107]
[d] Cc1cc(-c2[nH]c3sc(C4CCN(C(C)C)CC4)nc3c2C(C)C)cn2ncnc12
Ask: Ascending by pIC50, please. Reply with the item labels sorted in the order that was asked for.
Reply: a, d, c, b
(a: 6.99, d: 8.16, c: 8.44, b: 9.43)

Reference for the values: patent US20230139171A1
